Where do these numbers come from? They come from patent US20220306762A1.

target: T1, human CD38 on transiently transfected Expi293 cells (Origene #SC321273) (human, UniProt P28907 1-300); experiment: flow cytometry, transfected Expi293 cells;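 further: antibody binding to Expi293 cells transiently expressing human or murine CD38, antibodies applied at 10 ug/ml for 60 min on ice, read by flow cytometry as percent gated cells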
T1 construct: whole, on cells; also called Human (FACs)
# label = Fulfilled if FACs 10 ug/ml (percent gated) >= 60% else Not fulfilled

binder	label class
40566p1.F8 (scFv, V domains shown, tested as scFv-Fc supernatant) VH: DVQLVESGGGVVRPGESLRLSCAASGFTFDNYDMTWVRQAPGEGLEWVSFISSRGTFAYYTDSVKGRFTISRDNSKNTLYLQMNSLRAEDTAIYYCTKDSGEYYFFDYWGLGTLVTVSS VL: EIVMTQSPATLSVSPGERATFSCRASQSVNSKLAWYQQKPGQAPRLLIYGASRRATGIPDRFSGSGSGTEFTLTISSLQSEDFAVYYCQQYYDWPPLTFGGGTKVEIK	Not fulfilled
40566p1.A8 (scFv, V domains shown, tested as scFv-Fc supernatant) VH: DVQLVESGGGVVRPGESLRLSCAASGFTFDNYDMTWVRQAPGEGLEWVSFISSRGTFTYYTDSVKGRFTISRDNSKNTLYLQMNSLRAEDTAIYYCAKDSGEYYFFDYWGLGTLVTVSS VL: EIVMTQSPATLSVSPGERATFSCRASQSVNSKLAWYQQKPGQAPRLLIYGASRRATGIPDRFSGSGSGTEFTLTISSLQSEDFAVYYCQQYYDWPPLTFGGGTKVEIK	Not fulfilled
40596p1.F6 (scFv, V domains shown, tested as scFv-Fc supernatant) VH: EVQLLESGGGLVQPGGSLRLSCAASGFDFSKNAMSWVRQAPGKGLEYVAGSGWSGSFIFYADSVKGRFTVSRDNSENTLYLQMSSLRAEDTAVYYCAKNPGFGEMDVWGQGTTVTVSS VL: EIVLTQSPGSLFLSPGERATLTCRASQTIGSNLAWYQQKFGQAPRLLIYGASTRAADIPDRFSGSGSGTEFTLTISSLQSEDFAVYYCQQYNSWPPLTFGGGTKVEIK	Fulfilled
40769p1.1.B8 (scFv, V domains shown, tested as scFv-Fc supernatant) VH: EVQLLESGGGLVQPGGSLRLSCAASGFTFEDYAMSWVRQAPGKGLEWVSVISSKGGSTSNADSVKGRFTISRDNSKNTLYLQMNSLRAEDTAVYYCAKGMERQYYSYNAMDVWGQGTTVTVSS VL: QSVLTQPPSASGTPGQRVTISCSGSNSNIDVDYVYWYQQLPGTAPRLLIYKDDQRPSGVPDRFSGSKSGTSASLAISGLQSEDEADYYCATWDDNLNSWLFGGGTKLTVL	Fulfilled
40566p1.C11 (scFv, V domains shown, tested as scFv-Fc supernatant) VH: DVQLVESGGGVVRPGESLRLSCAASGFTFDNYDMTWVRQAPGEGLEWVSFISSRGTFTYYTDSVKGRFTISRDNSKNTLYLQMNSLRAEDTAIYYCTKDSGEYYFFDYWGLGTLVTVSS VL: EIVLTQSPGTLSLSPGERATLSCRASQTVGSKLAWYQQKPGQAPRLLIFSASSRATGIPARFSGSGSGTEFTLTISSLQSEDFAVYYCQQYYDWPPLTFGGGTKVEIK	Not fulfilled
40566p1.B12 (scFv, V domains shown, tested as scFv-Fc supernatant) VH: DVQLVESGGGVVRPGESLRLSCAASGFTFDNYDMTWVRQAPGEGLEWVSFISSRGIFTYYADSVKGRFTISRDNSKNTLYLQMNSLRAEDTAIYYCAKDSGEYYFFDYWGLGTLVTVSS VL: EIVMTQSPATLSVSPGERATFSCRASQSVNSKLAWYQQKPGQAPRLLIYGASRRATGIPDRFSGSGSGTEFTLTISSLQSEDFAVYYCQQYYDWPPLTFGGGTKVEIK	Not fulfilled
40617p1.2.H8 (scFv, V domains shown, tested as scFv-Fc supernatant) VH: EVQLLESGGGLVQPGGSLRLSCAASGFTFSSYWMTWVRQAPGKGLEWVSAISSYGGNYMYYADSVKGRFTISRDNSKDTLYLQMNSLRAEDTAVYYCAKDWDDGMDVWGQGTTVTVSS VL: EIVMTQSPATLSVSPGDRATLSCRASQSVNSKLAWYQQKPGQAPRLLIYAASSRATGIPDRFSGSGSGTDFTLTISRLEPEDFAVYYCQQYYDLPPYSFGGGTKVEIK	Fulfilled
40596p1.E4 (scFv, V domains shown, tested as scFv-Fc supernatant) VH: EVQLLESGGGLVQPGGSLRLSCAASGFDFSGSAMSWVRQAPGKGLEYVAGLGWSGSFIYYADSVKGRSTISRDNSKNTLYLQLNSLRAEDTAVYYCARNPGFGEMDVWGQGTTVTVSS VL: EIVLTQSPGSLSLSPGERATLSCRASQTVGSNLAWYQQKPGQAPRLLIYGASTRATDIPDRFSGSGSGTEFTLTISSLQSEDFAVYYCQQYNSWPPLTFGGGTKVEIK	Fulfilled
40769p1.1.G5 (scFv, V domains shown, tested as scFv-Fc supernatant) VH: EVQLLESGGGFVQPGGSLRLSCAASGFNFNNAWMNWVRQAPGKGLEWVGIINGDGTNTYYADSVKGRFTISRDNSKNTLYLQMSSLRAEDTAIYYCARDNKLNDYYYAMDVWGQGTTVTV VL: QSVLTQPSSASGTPGQRVTISCSGGSSNIHANYVYWYQQLPGTAPKLLIYRNSQRPSGVPDRFSGSKSGTSASLAISGLQSEDEADYYCGTWDNILNVWVFGGGTKLTVL	Fulfilled
40769p1.1.A2 (scFv, V domains shown, tested as scFv-Fc supernatant) VH: EVQLLESGGGLVQPGGSLRLSCAASGFLFDDYGMSWVRQAPGKGLEWVSAISYKGGSTYYADSVKGRFTISRDNSKNTLYLQMSSLRAEDTAVYYCAKDHKWNYYGMDVWGQGTTVTVSS VL: QSVLTQPPSASGTPGQRVTISCSGSTSNIGNDNYVSWYQQLPGTAPRLLIYKDDQRPSGVPDRFSGSKSGTSASLAISGLQSEDEADYYCGTWDDRLNAWVFGGGTKLTVL	Fulfilled
